log10 of ED50 values by entry
biological target: UniProtKB Q92731
Sequence (Q92731 whole entry): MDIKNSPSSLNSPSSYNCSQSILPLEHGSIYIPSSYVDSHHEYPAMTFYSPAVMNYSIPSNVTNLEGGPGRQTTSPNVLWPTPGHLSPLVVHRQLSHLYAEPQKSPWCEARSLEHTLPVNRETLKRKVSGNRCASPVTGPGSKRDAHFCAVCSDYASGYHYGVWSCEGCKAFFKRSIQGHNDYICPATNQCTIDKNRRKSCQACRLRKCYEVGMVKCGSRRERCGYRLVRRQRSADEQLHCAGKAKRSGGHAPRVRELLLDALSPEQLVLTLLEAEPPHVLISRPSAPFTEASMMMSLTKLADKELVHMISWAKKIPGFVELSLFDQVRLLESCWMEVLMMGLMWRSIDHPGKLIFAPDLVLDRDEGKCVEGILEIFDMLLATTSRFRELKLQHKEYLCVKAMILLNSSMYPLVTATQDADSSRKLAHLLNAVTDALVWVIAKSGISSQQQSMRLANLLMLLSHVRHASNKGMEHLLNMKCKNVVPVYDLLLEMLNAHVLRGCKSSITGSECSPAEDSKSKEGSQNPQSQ
Please be aware that the numbers have been log10-transformed from ED50 in µM.

NS(=O)(=O)Oc1ccc2c(c1)C(=O)CC(C13CC4CC(CC(C4)C1)C3)O2 (stereo not drawn) | 1.15
O=c1cc(C2CCCCCCCCCCC2)oc2ccc(O)cc12 | 0.18
O=C1CC(C23CC4CC(CC(C4)C2)C3)Oc2ccc(O)cc21 (stereo not drawn) | -1.46

UniProtKB Q92731 / log10 of ED50 / C[C@]12CC[C@@H]3c4ccc(O)cc4CC[C@H]3[C@@H]1CC[C@@H]2O : value?
-1.96

Item: CC(C)(C)c1cc(=O)c2cc(O)ccc2o1
1.84

* * *

Target sequence: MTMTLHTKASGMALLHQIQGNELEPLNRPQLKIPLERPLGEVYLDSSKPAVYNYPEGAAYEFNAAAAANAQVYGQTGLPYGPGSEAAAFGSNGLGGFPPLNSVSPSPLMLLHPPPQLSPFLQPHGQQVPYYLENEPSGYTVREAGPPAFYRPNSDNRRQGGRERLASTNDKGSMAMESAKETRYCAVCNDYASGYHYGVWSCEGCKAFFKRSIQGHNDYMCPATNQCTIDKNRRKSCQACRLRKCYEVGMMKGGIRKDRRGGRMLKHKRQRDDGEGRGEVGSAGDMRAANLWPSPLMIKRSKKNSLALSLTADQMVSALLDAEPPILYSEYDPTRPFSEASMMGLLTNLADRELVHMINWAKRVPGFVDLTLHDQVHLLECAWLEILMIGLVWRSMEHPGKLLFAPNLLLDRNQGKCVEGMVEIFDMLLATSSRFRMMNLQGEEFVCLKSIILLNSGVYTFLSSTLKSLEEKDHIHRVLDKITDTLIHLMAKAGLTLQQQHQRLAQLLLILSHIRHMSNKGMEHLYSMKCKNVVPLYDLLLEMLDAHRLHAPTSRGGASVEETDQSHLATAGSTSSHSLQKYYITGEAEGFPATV
Classify: satisfied when ED50 is strictly less than 2 µM; not satisfied when ED50 is not.

Worked examples follow.
NS(=O)(=O)Oc1ccc2sc(C34CC5CC(CC(C5)C3)C4)cc(=O)c2c1 | not satisfied
O=c1cc(C23CC4CC(CC(C4)C2)C3)oc2ccc(O)cc12 | satisfied
CC(C)(C)c1cc(=O)c2cc(O)ccc2o1 | not satisfied
CC1(C)C(c2cc(=O)c3cc(O)ccc3o2)C1(C)C | satisfied

Does the reported ED50 of the following molecule sit strictly below 2 µM? CCCCCCCCC(C)(C)c1cc(=O)c2cc(OS(N)(=O)=O)ccc2o1
not satisfied

Quick one: NS(=O)(=O)Oc1ccc2oc(C3CCCCCCCCCCC3)cc(=O)c2c1
not satisfied

Another molecule: O=c1cc(C2CCCCCCCCCCC2)oc2ccc(O)cc12
satisfied

Same thing, different molecule: O=C1CC(C23CC4CC(CC(C4)C2)C3)Oc2ccc(O)cc21 (configuration not stated)
satisfied

// query: NS(=O)(=O)Oc1ccc2c(c1)C(=O)CC(C13CC4CC(CC(C4)C1)C3)O2 (configuration not stated)
not satisfied

* * *

tested on: MCF7; experiment: Stimulation of MCF-7 cell proliferation at 10 nM; assay type: functional, Homo sapiens
readout_type: Stimulation (%)
I only need the number, in %, no unit after it.

Some solved cases for reference:
CC(C)(C)c1cc(=O)c2cc(OS(N)(=O)=O)ccc2o1 | 12
NS(=O)(=O)Oc1ccc2oc(C34CC5CC(CC(C5)C3)C4)cc(=O)c2c1 | 71
C[C@]12CC[C@@H]3c4ccc(OS(N)(=O)=O)cc4CCC3[C@@H]1CCC2=O (single isomer, unassigned) [EMATE] | 97

Can you share its Stimulation? I mean this molecule: C[C@]12CC[C@@H]3c4ccc(O)cc4CC[C@H]3[C@@H]1CC[C@@H]2O
400

Then this molecule: CCCCCCCCCc1cc(=O)c2cc(OS(N)(=O)=O)ccc2o1
0

Entry to check: CC1(C)C(c2cc(=O)c3cc(OS(N)(=O)=O)ccc3o2)C1(C)C
52

* * *

Data export: ED50 values recorded with Estrogen receptor beta (Homo sapiens).

CCCCCC12CCC(CC1)C(c1cc(=O)c3cc(O)ccc3o1)C2 (stereo not drawn) | > 100 µM
NS(=O)(=O)Oc1ccc2oc(C3CCCCCCCCCCC3)cc(=O)c2c1 | > 30 µM
NS(=O)(=O)Oc1ccc2oc(C34CC5CC(CC(C5)C3)C4)cc(=O)c2c1 | > 30 µM
CC(C)(C)c1cc(=O)c2cc(OS(N)(=O)=O)ccc2o1 | > 100 µM
CCCCCCCCCc1cc(=O)c2cc(O)ccc2o1 | > 100 µM
CCCCCCCCCc1cc(=O)c2cc(OS(N)(=O)=O)ccc2o1 | > 100 µM
CCCCCCCCC(C)(C)c1cc(=O)c2cc(OS(N)(=O)=O)ccc2o1 | > 100 µM
O=c1cc(C23CC4CC(CC(C4)C2)C3)sc2ccc(O)cc12 | 0.48 µM
NS(=O)(=O)Oc1ccc2sc(C34CC5CC(CC(C5)C3)C4)cc(=O)c2c1 | 18 µM
CCCCCCCCC(C)(C)c1cc(=O)c2cc(O)ccc2o1 | > 100 µM

I have this molecule here, CC1(C)C(c2cc(=O)c3cc(OS(N)(=O)=O)ccc3o2)C1(C)C , and I need its recorded ED50.
47 µM

Another: CC1(C)C(c2cc(=O)c3cc(O)ccc3o2)C1(C)C
2.6 µM

Same read-out for O=c1cc(C23CC4CC(CC(C4)C2)C3)oc2ccc(O)cc12 ?
1.4 µM

* * *

Target: Estrogen receptor (Homo sapiens)
Sequence (whole entry): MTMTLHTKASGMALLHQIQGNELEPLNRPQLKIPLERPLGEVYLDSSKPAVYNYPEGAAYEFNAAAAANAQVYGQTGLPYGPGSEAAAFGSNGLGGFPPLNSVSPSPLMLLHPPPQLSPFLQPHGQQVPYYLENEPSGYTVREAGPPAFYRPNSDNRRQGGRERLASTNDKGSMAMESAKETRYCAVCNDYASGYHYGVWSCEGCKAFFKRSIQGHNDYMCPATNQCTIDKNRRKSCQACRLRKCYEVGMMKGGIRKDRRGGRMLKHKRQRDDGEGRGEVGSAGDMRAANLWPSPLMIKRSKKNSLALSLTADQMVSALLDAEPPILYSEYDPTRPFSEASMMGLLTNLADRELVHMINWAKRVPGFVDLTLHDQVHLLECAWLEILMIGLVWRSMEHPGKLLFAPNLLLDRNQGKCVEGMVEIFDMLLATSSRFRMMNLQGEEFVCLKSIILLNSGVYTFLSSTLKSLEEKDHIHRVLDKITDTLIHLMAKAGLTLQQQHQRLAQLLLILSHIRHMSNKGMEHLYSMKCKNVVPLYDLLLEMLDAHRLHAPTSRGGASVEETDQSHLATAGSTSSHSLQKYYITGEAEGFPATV
Attribute: ED50

For orientation, consider the following solved cases.
O=c1cc(C23CC4CC(CC(C4)C2)C3)sc2ccc(O)cc12 | 0.21 µM
CC1(C)C(c2cc(=O)c3cc(OS(N)(=O)=O)ccc3o2)C1(C)C | 30 µM
CCCCCCCCC(C)(C)c1cc(=O)c2cc(O)ccc2o1 | > 100 µM
NS(=O)(=O)Oc1ccc2oc(C34CC5CC(CC(C5)C3)C4)cc(=O)c2c1 | > 30 µM
CCCCCC12CCC(CC1)C(c1cc(=O)c3cc(O)ccc3o1)C2 (stereo not drawn) | > 100 µM
CCCCCCCCCc1cc(=O)c2cc(OS(N)(=O)=O)ccc2o1 | > 50 µM
CC(C)(C)c1cc(=O)c2cc(OS(N)(=O)=O)ccc2o1 | > 100 µM

Now for the molecule whose ED50 we want.
Which value of ED50 has been reported for CCCCCCCCCc1cc(=O)c2cc(O)ccc2o1 in the records?
> 100 µM

* * *

system: MCF7; assay: Stimulation of MCF-7 cell proliferation at 10 nM; type: functional, Homo sapiens
readout_type: Stimulation (%)
Reply numerically in %, unit not repeated.

Illustrative cases are given below, each with its answer.
CCCCCCCCC(C)(C)c1cc(=O)c2cc(OS(N)(=O)=O)ccc2o1 | 0
NS(=O)(=O)Oc1ccc2oc(CCc3ccccc3)cc(=O)c2c1 | 16
NS(=O)(=O)Oc1ccc2oc(C3CCCCCCCCCCC3)cc(=O)c2c1 | 48
NS(=O)(=O)Oc1ccc2sc(C34CC5CC(CC(C5)C3)C4)cc(=O)c2c1 | 78

Lab note: next compound to report on.
Which measured Stimulation value corresponds to NS(=O)(=O)Oc1ccc2c(c1)C(=O)CC(C13CC4CC(CC(C4)C1)C3)O2 (stereo not given) ?
79
